Assay: Elimination of inhaled 14C-labeled NAC from the lungs in animal studies
Assay type: in vivo
Details: inhaled or intranasal, administered by inhalation, animal studies (unpublished observation)
QUANTITY_NAME: half-life

For reference, reported half-life for CC(=O)N[C@@H](CS)C(=O)O stands at ~20 min
